Test system: LNCaP cells
Assay Procedure: Phase 1 protocol to identify androgen agonist properties (LNCaP cell proliferation in CDHS medium)
Assay type: cell-based, human
Measurement Conditions: classification from Phase 1 and Phase 2 protocols
Quantity Measured: CHARACTERISTICS

{"Molecule": "C[C@]12CC[C@H]3[C@@H](CCC4=CC(=O)CC[C@@]43C)[C@@H]1CC[C@@H]2O", "Measured On": "LNCaP cells", "Quantity Measured": "CHARACTERISTICS", "Measured": "full agonist"}
{"Molecule": "C[C@]12CCC(=O)C=C1CC[C@@H]1[C@@H]2[C@@H](O)C[C@@]2(C)[C@H]1CC[C@]2(O)C(=O)CO [hydrocortisone]", "Measured On": "LNCaP cells", "Quantity Measured": "CHARACTERISTICS", "Measured": "quiescent"}
{"Molecule": "C[C@]12CC[C@@H](O)C[C@@H]1CC[C@@H]1[C@@H]2CC[C@]2(C)[C@@H](O)CC[C@@H]12", "Measured On": "LNCaP cells", "Quantity Measured": "CHARACTERISTICS", "Measured": "full agonist"}
{"Molecule": "CC(=O)[C@H]1CC[C@H]2[C@@H]3CC=C4C[C@@H](O)CC[C@]4(C)[C@H]3CC[C@]12C", "Measured On": "LNCaP cells", "Quantity Measured": "CHARACTERISTICS", "Measured": "full agonist"}
{"Molecule": "C[C@]12CCC(=O)C[C@H]1CC[C@@H]1[C@@H]2CC[C@]2(C)[C@@H](O)CC[C@@H]12 [5β-DHT, 5β-dihydrotestosterone]", "Measured On": "LNCaP cells", "Quantity Measured": "CHARACTERISTICS", "Measured": "full agonist"}
{"Molecule": "CC(=O)O[C@]1(C(C)=O)CC[C@H]2[C@@H]3C=C(Cl)C4=CC(=O)[C@@H]5C[C@@H]5[C@]4(C)[C@H]3CC[C@@]21C [cyproterone acetate]", "Measured On": "LNCaP cells", "Quantity Measured": "CHARACTERISTICS", "Measured": "full agonist"}
{"Molecule": "C[C@]12CC[C@@H]3c4ccc(O)cc4CC[C@H]3[C@@H]1CC[C@@H]2O", "Measured On": "LNCaP cells", "Quantity Measured": "CHARACTERISTICS", "Measured": "full agonist"}
{"Molecule": "C[C@]12CCC(=O)C[C@@H]1CC[C@@H]1[C@@H]2CC[C@]2(C)[C@@H](O)CC[C@@H]12 [5α-DHT, 5α-dihydrotestosterone]", "Measured On": "LNCaP cells", "Quantity Measured": "CHARACTERISTICS", "Measured": "full agonist"}
{"Molecule": "CCC(=O)C1(C)CCC2C3CCC4=CC(=O)CCC4=C3CCC21C (stereo not drawn)", "Measured On": "LNCaP cells", "Quantity Measured": "CHARACTERISTICS", "Measured": "full agonists"}
{"Molecule": "C[C@]1(O)CC[C@H]2[C@@H]3CCC4=CC(=O)CCC4=C3C=C[C@@]21C", "Measured On": "LNCaP cells", "Quantity Measured": "CHARACTERISTICS", "Measured": "full agonists"}
{"Molecule": "CC(C)C(=O)Nc1ccc([N+](=O)[O-])c(C(F)(F)F)c1 [flutamide]", "Measured On": "LNCaP cells", "Quantity Measured": "CHARACTERISTICS", "Measured": "quiescent"}
{"Molecule": "C[C@]12C[C@H](CCl)[C@@H]3c4ccc(O)cc4CC[C@H]3[C@@H]1CC[C@@H]2O", "Measured On": "LNCaP cells", "Quantity Measured": "CHARACTERISTICS", "Measured": "full agonists"}
{"Molecule": "C[C@@H]1CC2=CC(=O)CC[C@@H]2[C@H]2CC[C@@]3(C)[C@@H](CC[C@]3(C)O)[C@@H]21", "Measured On": "LNCaP cells", "Quantity Measured": "CHARACTERISTICS", "Measured": "full agonist"}
{"Molecule": "CC(=O)[C@H]1CC[C@H]2[C@@H]3CCC4=CC(=O)CC[C@]4(C)[C@H]3CC[C@]12C", "Measured On": "LNCaP cells", "Quantity Measured": "CHARACTERISTICS", "Measured": "full agonists"}
{"Molecule": "CC1(C)NC(=O)N(c2ccc([N+](=O)[O-])c(C(F)(F)F)c2)C1=O", "Measured On": "LNCaP cells", "Quantity Measured": "CHARACTERISTICS", "Measured": "full agonist"}
{"Molecule": "CC(C)(O)C(=O)Nc1ccc([N+](=O)[O-])c(C(F)(F)F)c1 [hydroxyflutamide]", "Measured On": "LNCaP cells", "Quantity Measured": "CHARACTERISTICS", "Measured": "full agonist"}
{"Molecule": "CC(=O)O[C@]1(C(C)=O)CC[C@H]2[C@@H]3C[C@H](C)C4=CC(=O)CC[C@]4(C)[C@H]3CC[C@@]21C [medroxy progesterone, medroxyprogesterone acetate]", "Measured On": "LNCaP cells", "Quantity Measured": "CHARACTERISTICS", "Measured": "full agonist"}
